Data origin: patent US11738007B2

# PROTOCOL_TEXT: LogD
# Type: physicochemical
# SETTINGS: pH 7.4
ASSAY_METRIC: logD

Dear colleague, I am looking for the recorded logD of the following molecule: Cc1onc(NS(=O)(=O)c2ccccc2-c2ccc(-c3ncco3)cc2CN(C)C(=O)CC(C)(C)C)c1C 1.48

Further, for CCCCCS(=O)(=O)N(CCC)CCN1C[C@H](c2ccc3c(c2)OCO3)[C@@H](C(=O)O)[C@@H]1c1ccc(OC)c(F)c1 ? 2.3

###

# ASSAYED_TARGET: ETB receptor (Homo sapiens, UniProt P24530)
# Sequence (P24530 27-442): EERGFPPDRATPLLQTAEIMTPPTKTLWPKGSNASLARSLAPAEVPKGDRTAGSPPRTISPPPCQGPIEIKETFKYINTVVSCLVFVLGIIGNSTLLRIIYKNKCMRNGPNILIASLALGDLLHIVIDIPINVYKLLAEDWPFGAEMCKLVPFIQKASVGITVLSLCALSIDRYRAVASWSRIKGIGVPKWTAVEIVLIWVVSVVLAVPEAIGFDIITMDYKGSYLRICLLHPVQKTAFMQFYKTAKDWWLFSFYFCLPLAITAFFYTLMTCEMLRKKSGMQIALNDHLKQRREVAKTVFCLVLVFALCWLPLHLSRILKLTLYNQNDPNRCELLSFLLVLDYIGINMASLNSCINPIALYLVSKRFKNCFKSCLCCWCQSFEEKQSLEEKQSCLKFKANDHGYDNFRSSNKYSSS
# PROTOCOL_TEXT: Functional potency for ETB receptor
# Source text: […]
Assign pIC50 to each entry below.
API: returns pIC50 as number; meaning -log10 of concentration in mol/L.

Find pIC50 (ETB receptor (Homo sapiens, UniProt P24530)) for the entry Cc1onc(NS(=O)(=O)c2ccccc2-c2ccc(-c3ncco3)cc2CN(C)C(=O)CC(C)(C)C)c1C 6.23

Next entry: CCCCCS(=O)(=O)N(CCC)CCN1C[C@H](c2ccc3c(c2)OCO3)[C@@H](C(=O)O)[C@@H]1c1ccc(OC)c(F)c1 8.46
